Biological target: Human Nav1.8 (Homo sapiens)
Construct: expressed in transfected cells; host or cells: HEK293
Sequence (Q9Y5Y9 whole entry): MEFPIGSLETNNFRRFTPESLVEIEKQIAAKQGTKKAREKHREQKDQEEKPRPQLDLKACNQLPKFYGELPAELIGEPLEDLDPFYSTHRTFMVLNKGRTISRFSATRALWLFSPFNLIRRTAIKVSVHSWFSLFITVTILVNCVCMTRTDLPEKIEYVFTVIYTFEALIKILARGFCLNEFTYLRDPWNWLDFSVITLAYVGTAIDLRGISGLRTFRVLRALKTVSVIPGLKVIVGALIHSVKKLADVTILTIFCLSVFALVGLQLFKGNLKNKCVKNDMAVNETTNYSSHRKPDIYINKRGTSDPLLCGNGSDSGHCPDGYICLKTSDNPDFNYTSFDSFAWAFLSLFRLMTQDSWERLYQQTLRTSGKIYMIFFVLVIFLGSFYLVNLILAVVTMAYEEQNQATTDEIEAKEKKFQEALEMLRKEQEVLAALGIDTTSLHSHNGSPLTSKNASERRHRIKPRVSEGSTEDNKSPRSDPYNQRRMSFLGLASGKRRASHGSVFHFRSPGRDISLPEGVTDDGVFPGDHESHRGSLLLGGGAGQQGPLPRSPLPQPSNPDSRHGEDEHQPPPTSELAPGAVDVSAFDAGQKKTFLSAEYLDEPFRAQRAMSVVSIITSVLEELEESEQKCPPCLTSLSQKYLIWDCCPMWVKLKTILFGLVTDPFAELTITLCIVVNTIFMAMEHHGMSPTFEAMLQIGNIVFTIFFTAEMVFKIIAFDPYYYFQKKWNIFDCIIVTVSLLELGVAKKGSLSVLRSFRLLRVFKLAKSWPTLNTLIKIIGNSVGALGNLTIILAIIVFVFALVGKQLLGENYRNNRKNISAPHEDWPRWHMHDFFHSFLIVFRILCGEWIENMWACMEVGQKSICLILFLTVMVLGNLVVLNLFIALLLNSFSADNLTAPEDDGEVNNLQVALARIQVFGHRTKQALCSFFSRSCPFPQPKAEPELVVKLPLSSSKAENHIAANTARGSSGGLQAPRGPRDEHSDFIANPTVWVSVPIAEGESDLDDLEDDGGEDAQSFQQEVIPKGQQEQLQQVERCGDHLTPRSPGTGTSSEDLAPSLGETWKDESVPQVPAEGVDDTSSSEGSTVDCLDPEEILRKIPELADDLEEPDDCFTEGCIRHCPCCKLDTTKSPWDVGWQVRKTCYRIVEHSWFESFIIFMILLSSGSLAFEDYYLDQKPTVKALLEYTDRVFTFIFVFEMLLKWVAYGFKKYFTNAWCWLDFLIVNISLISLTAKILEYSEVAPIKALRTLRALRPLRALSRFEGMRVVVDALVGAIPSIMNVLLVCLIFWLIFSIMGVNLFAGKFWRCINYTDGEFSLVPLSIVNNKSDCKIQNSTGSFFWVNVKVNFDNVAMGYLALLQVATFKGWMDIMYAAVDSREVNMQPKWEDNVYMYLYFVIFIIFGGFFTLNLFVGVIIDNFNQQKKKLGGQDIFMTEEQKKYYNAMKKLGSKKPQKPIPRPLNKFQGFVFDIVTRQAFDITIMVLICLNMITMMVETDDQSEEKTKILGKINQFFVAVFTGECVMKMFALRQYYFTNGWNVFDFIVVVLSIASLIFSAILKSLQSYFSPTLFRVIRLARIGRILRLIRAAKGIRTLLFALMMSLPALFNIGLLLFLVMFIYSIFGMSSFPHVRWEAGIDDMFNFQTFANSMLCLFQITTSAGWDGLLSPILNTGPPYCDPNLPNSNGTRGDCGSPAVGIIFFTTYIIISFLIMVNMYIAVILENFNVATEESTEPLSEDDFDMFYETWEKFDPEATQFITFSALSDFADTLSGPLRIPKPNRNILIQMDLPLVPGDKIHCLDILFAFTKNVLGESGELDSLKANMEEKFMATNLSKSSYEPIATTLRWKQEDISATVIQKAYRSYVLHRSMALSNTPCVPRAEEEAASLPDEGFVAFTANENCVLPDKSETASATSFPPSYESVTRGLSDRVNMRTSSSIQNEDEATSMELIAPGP
Assay: VIPR Assay for Nav1.8 Compounds (FRET membrane potential, deltamethrin opener)
Assay type: cell-based

>  <COMPOUND>
COCCCOc1ccc(F)cc1-c1ccc(NC(=O)c2ccnn2C)nc1N [Example 153]

>  <IC50 (µM)>
8.8

$$$$
>  <COMPOUND>
COc1cccc(-c2ccc(NC(=O)c3ccnn3C)nc2N)c1OC [Example 125]

>  <IC50 (µM)>
25

$$$$

* * *

Target: Human Nav1.5 (Homo sapiens)
Construct: expressed in transfected cells; host or cells: HEK293
Sequence (Q14524 whole entry): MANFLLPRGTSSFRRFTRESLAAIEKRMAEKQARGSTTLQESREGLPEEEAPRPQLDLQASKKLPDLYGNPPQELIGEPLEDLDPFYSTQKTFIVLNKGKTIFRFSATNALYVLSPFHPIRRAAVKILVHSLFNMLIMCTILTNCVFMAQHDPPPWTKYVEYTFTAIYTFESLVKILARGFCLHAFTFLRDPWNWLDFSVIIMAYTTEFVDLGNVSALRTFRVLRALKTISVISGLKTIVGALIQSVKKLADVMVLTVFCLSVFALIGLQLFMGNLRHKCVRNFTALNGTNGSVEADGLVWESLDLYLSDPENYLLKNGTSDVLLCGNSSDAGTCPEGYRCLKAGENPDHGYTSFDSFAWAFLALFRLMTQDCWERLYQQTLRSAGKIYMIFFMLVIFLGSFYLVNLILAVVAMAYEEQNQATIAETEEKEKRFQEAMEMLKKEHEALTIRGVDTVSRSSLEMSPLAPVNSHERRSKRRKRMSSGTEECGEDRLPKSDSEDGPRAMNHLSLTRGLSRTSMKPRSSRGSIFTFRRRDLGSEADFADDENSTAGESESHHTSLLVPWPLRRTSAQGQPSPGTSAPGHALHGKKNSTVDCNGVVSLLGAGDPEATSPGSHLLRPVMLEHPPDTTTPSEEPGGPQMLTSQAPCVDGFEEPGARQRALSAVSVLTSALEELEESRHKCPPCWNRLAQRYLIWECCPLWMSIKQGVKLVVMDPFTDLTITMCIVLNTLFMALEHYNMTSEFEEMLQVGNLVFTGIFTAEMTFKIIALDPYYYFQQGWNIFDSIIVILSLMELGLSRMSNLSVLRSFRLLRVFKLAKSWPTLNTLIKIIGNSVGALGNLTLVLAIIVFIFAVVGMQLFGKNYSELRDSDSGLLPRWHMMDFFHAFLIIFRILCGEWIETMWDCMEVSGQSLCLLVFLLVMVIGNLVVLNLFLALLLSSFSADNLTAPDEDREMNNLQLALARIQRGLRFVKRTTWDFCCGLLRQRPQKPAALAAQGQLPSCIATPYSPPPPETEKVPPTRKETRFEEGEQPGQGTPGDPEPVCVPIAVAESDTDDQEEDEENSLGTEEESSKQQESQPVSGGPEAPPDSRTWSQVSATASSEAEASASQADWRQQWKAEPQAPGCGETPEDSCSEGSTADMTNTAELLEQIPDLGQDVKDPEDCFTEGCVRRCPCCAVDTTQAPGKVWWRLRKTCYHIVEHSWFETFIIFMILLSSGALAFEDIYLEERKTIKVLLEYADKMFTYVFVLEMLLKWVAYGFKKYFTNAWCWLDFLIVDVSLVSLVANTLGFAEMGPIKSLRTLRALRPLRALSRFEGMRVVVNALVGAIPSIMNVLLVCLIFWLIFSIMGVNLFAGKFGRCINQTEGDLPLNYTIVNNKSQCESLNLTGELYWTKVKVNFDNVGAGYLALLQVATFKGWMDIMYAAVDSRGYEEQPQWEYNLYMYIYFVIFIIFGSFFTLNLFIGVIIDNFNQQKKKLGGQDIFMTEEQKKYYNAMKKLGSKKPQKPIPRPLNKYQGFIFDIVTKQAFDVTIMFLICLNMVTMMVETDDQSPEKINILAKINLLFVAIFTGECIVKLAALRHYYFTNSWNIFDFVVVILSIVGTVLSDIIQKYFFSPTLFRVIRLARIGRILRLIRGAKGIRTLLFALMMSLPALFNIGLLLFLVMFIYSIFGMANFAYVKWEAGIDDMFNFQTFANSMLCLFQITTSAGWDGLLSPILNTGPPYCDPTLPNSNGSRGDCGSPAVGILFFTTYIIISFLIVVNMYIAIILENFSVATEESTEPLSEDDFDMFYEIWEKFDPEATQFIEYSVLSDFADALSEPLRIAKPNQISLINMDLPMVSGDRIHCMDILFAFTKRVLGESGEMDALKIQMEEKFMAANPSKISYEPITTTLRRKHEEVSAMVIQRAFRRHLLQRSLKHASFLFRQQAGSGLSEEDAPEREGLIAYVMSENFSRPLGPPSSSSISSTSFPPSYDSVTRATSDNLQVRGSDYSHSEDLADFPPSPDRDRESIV
Experiment: Nav1.5 Assay (VIPR, HEK293 cells)
Type: cell-based
Details: HEK293 cells expressing Human Nav1.5; average of replicates; read-out: Nav1.5 IC50
Method: The Nav1.5 assay is performed in HEK293 cells expressing Human Nav1.5 in the same way as the Nav1.8 assay. Where replicate experiments were conducted resulting in multiple sets of data for a test compound, the data presented represent the average value from all replicate experiments.
Reported log10 IC50 values follow for various compounds
MEASURE NAME: log10 IC50 (log10 of the value in µM)

>  <COMPOUND STRING>
CCn1nccc1C(=O)Nc1ccc(-c2cc(F)ccc2Cl)c(N)n1

>  <MEASURE NAME>
log10 IC50

>  <MEASURED NUMBER>
1.30

$$$$
>  <COMPOUND STRING>
CC(C)n1nccc1C(=O)Nc1ccc(-c2cc(F)ccc2Cl)c(N)n1

>  <MEASURE NAME>
log10 IC50

>  <MEASURED NUMBER>
1.49

$$$$
>  <COMPOUND STRING>
CC(C)n1nccc1C(=O)Nc1ccc(-c2cc(OC(F)(F)F)ccc2Cl)c(N)n1

>  <MEASURE NAME>
log10 IC50

>  <MEASURED NUMBER>
1.20

$$$$
>  <COMPOUND STRING>
Cc1nocc1C(=O)Nc1ccc(-c2ccccc2OC(F)(F)F)c(N)n1

>  <MEASURE NAME>
log10 IC50

>  <MEASURED NUMBER>
1.08

$$$$
>  <COMPOUND STRING>
CCn1nccc1C(=O)Nc1ccc(-c2cc(OC)cc(Cl)c2Cl)c(N)n1

>  <MEASURE NAME>
log10 IC50

>  <MEASURED NUMBER>
0.99

$$$$
>  <COMPOUND STRING>
Nc1nc(NC(=O)c2ccno2)ccc1-c1cc(Cl)cc(Cl)c1Cl

>  <MEASURE NAME>
log10 IC50

>  <MEASURED NUMBER>
1.15

$$$$
>  <COMPOUND STRING>
COCc1cc(C(=O)Nc2ccc(-c3ccccc3OC(F)(F)F)c(N)n2)on1

>  <MEASURE NAME>
log10 IC50

>  <MEASURED NUMBER>
1.49

$$$$
>  <COMPOUND STRING>
Cc1nocc1C(=O)Nc1ccc(-c2cc(Cl)cc(Cl)c2)c(N)n1

>  <MEASURE NAME>
log10 IC50

>  <MEASURED NUMBER>
1.48

$$$$
>  <COMPOUND STRING>
Cc1oncc1C(=O)Nc1ccc(-c2ccccc2Cl)c(N)n1

>  <MEASURE NAME>
log10 IC50

>  <MEASURED NUMBER>
1.23

$$$$
>  <COMPOUND STRING>
Cc1nocc1C(=O)Nc1ccc(-c2cccc(C(F)(F)F)c2Cl)c(N)n1

>  <MEASURE NAME>
log10 IC50

>  <MEASURED NUMBER>
1.08

$$$$
>  <COMPOUND STRING>
Cn1nccc1C(=O)Nc1ccc(-c2ccccc2OC(F)(F)F)c(N)n1

>  <MEASURE NAME>
log10 IC50

>  <MEASURED NUMBER>
1.26

$$$$
>  <COMPOUND STRING>
Cn1nccc1C(=O)Nc1ccc(-c2ccc(Cl)cc2Cl)c(N)n1

>  <MEASURE NAME>
log10 IC50

>  <MEASURED NUMBER>
1.11

$$$$
>  <COMPOUND STRING>
Nc1nc(NC(=O)c2conc2C(F)(F)F)ccc1-c1cc(F)ccc1Cl

>  <MEASURE NAME>
log10 IC50

>  <MEASURED NUMBER>
0.61

$$$$
>  <COMPOUND STRING>
Cn1nccc1C(=O)Nc1ccc(-c2cc(Cl)ccc2OC(F)(F)F)c(N)n1

>  <MEASURE NAME>
log10 IC50

>  <MEASURED NUMBER>
1.04

$$$$
>  <COMPOUND STRING>
Cc1nocc1C(=O)Nc1ccc(-c2cc(F)ccc2OC(C)C)c(N)n1

>  <MEASURE NAME>
log10 IC50

>  <MEASURED NUMBER>
1.45

$$$$
>  <COMPOUND STRING>
Cc1oncc1C(=O)Nc1ccc(-c2ccccc2OC(F)(F)F)c(N)n1

>  <MEASURE NAME>
log10 IC50

>  <MEASURED NUMBER>
1.23

$$$$
>  <COMPOUND STRING>
N#Cc1ccccc1C(=O)Nc1ccc(-c2ccccc2OC(F)(F)F)c(N)n1

>  <MEASURE NAME>
log10 IC50

>  <MEASURED NUMBER>
0.40

$$$$
>  <COMPOUND STRING>
Cn1nccc1C(=O)Nc1ccc(-c2cc(O)cc(Cl)c2Cl)c(N)n1

>  <MEASURE NAME>
log10 IC50

>  <MEASURED NUMBER>
1.08

$$$$
>  <COMPOUND STRING>
Cn1nccc1C(=O)Nc1ccc(-c2ccccc2CC(F)(F)F)c(N)n1

>  <MEASURE NAME>
log10 IC50

>  <MEASURED NUMBER>
0.88

$$$$
>  <COMPOUND STRING>
CC(C)Oc1ccc(F)cc1-c1ccc(NC(=O)c2ccnn2C)nc1N

>  <MEASURE NAME>
log10 IC50

>  <MEASURED NUMBER>
1.43

$$$$
>  <COMPOUND STRING>
CCn1nccc1C(=O)Nc1ccc(-c2cc(Cl)ccc2OC(F)(F)F)c(N)n1

>  <MEASURE NAME>
log10 IC50

>  <MEASURED NUMBER>
1.20

$$$$
>  <COMPOUND STRING>
Cc1nocc1C(=O)Nc1ccc(-c2cc(F)ccc2F)c(N)n1

>  <MEASURE NAME>
log10 IC50

>  <MEASURED NUMBER>
1.20

$$$$
>  <COMPOUND STRING>
Cn1nncc1C(=O)Nc1ccc(-c2ccccc2OC(F)(F)F)c(N)n1

>  <MEASURE NAME>
log10 IC50

>  <MEASURED NUMBER>
1.49

$$$$
>  <COMPOUND STRING>
CC(C)n1nccc1C(=O)Nc1ccc(-c2ccccc2OC(F)(F)F)c(N)n1

>  <MEASURE NAME>
log10 IC50

>  <MEASURED NUMBER>
1.23

$$$$
>  <COMPOUND STRING>
COCc1nocc1C(=O)Nc1ccc(-c2ccccc2OC(F)(F)F)c(N)n1

>  <MEASURE NAME>
log10 IC50

>  <MEASURED NUMBER>
0.99

$$$$
>  <COMPOUND STRING>
Cc1nocc1C(=O)Nc1ccc(-c2cc(F)ccc2Cl)c(N)n1

>  <MEASURE NAME>
log10 IC50

>  <MEASURED NUMBER>
1.08

$$$$
>  <COMPOUND STRING>
COc1ccc(Cl)c(-c2ccc(NC(=O)c3conc3C)nc2N)c1

>  <MEASURE NAME>
log10 IC50

>  <MEASURED NUMBER>
0.93

$$$$
>  <COMPOUND STRING>
CCn1nccc1C(=O)Nc1ccc(-c2cc(Cl)ccc2Cl)c(N)n1

>  <MEASURE NAME>
log10 IC50

>  <MEASURED NUMBER>
1.23

$$$$
>  <COMPOUND STRING>
Cn1nccc1C(=O)Nc1ccc(-c2cccc(Cl)c2Cl)c(N)n1

>  <MEASURE NAME>
log10 IC50

>  <MEASURED NUMBER>
1.43

$$$$

Source of measurements: patent US8134007B2
